Biological target: Solute carrier family 2, facilitated glucose transporter member 4 (Rattus norvegicus) (UniProt P19357)
Sequence (P19357 whole entry): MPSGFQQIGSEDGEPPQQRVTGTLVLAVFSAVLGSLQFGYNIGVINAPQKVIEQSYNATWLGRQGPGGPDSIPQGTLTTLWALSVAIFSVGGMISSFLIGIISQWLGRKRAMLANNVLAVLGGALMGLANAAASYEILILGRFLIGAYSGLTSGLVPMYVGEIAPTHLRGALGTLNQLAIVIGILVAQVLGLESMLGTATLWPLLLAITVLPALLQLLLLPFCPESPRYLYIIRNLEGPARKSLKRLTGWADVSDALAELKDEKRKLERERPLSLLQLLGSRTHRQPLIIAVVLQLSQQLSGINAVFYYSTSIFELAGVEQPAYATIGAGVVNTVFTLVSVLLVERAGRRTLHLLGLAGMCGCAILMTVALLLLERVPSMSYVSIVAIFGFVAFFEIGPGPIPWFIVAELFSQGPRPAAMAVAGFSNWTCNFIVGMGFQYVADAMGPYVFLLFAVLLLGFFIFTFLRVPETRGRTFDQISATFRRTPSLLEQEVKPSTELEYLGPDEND
Test: Induction of GLUT4 translocation in rat L6-GLUT4myc skeletal muscle cells assessed as translocation to cell surface by measuring fold stimulation at 10 uM measured after 16 hrs by antibody-coupled colorimetric assay
Type: cell-based
Conditions: filed as activator
fold change (FC) reference
Enter the number alone.

Compound	fold change (FC)
CC1=C(C(=O)Nc2cccc(-c3nc4ccccc4c(=O)n3C)c2)C(c2ccc(F)cc2)NC(=O)N1 (stereo not drawn)	1.13
CC1=C(C(=O)Nc2ccc(-c3nc4ccccc4c(=O)n3C)cc2)C(c2ccc(Cl)c(Cl)c2)NC(=O)N1 (stereo not drawn)	1.63
CC1=C(C(=O)Nc2ccc(-c3nc4ccccc4c(=O)n3C)cc2)C(c2ccco2)NC(=O)N1 (stereo not drawn)	1.11

**Query** Given the entry CCn1c(-c2ccc(NC(=O)C3=C(C)NC(=O)NC3c3scnc3C)cc2)nc2ccccc2c1=O (stereo not drawn) , report its measured fold change (FC).
**Result** 1.31

**Query** Also check COc1ccc(C2NC(=O)NC(C)=C2C(=O)Nc2ccc(-c3nc4ccccc4c(=O)n3C)cc2)cc1OC (stereo not drawn)
**Result** 1.01

**Query** Also check CC1=C(C(=O)Nc2ccc(-c3nc4ccccc4c(=O)n3C)cc2)C(CC(C)C)NC(=O)N1 (stereo not drawn)
**Result** 1.14

**Query** Also check COc1ccc(C2NC(=O)NC(C)=C2C(=O)Nc2ccc(-c3nc4ccccc4c(=O)n3C)cc2)cc1 (stereo not drawn)
**Result** 1.28

**Query** Also check CC1=C(C(=O)Nc2ccc(-c3nc4ccccc4c(=O)n3C)cc2)C(c2cccs2)NC(=O)N1 (stereo not drawn)
**Result** 1.27

---

Target: Solute carrier family 2, facilitated glucose transporter member 4 (Rattus norvegicus) (UniProt P19357)
Assay: Induction of GLUT4 translocation in rat L6-GLUT4myc skeletal muscle cells assessed as translocation to cell surface by measuring fold stimulation at 10 uM measured after 16 hrs by antibody-coupled colorimetric assay
Format: cell-based
Settings: filed as activator
Measure: fold change (FC)
Enter the number alone.

Example entries and their recorded answers appear below.
Compound	fold change (FC)
COc1ccc(C2NC(=O)NC(C)=C2C(=O)Nc2cccc(-c3nc4ccccc4c(=O)n3C)c2)cc1OC (centres undefined)	1.02
CC1=C(C(=O)Nc2ccc(-c3nc4ccccc4c(=O)n3C)cc2)C(c2ccc(C(F)(F)F)cc2)NC(=O)N1 (centres undefined)	1.54
CCn1c(-c2ccc(NC(=O)C3=C(C)NC(=O)NC3c3ccccc3)cc2)nc2ccccc2c1=O (centres undefined)	1.32

**Query** Given the entry CC1=C(C(=O)Nc2cccc(-c3nc4ccccc4c(=O)n3C)c2)C(c2cccs2)NC(=O)N1 (centres undefined) , report its measured fold change (FC).
**Result** 1.16
